experiment: Plasma concentration in vagotomized dog at 3 mg/kg, iv after 60 mins; assay type: ADME, organism-based, Canis lupus familiaris; parameters: dose 3 mg/kg, route intravenous
recorded.metric: concentration at 1 h (µM)
Report only the number, with the unit µM understood.

Query string: Look up concentration at 1 h: CS(=O)(=O)c1ccc(F)cc1C(=O)N1CCC(N(C2CC2)S(=O)(=O)c2cccc(C(F)(F)F)c2)CC1
Result string: 5.79

###

Reported inhibition at 1 µM values follow for various molecules
biological target: Cav1.2 (Homo sapiens, UniProt Q13936); assay: Inhibition of Cav1.2 assessed as inhibition of calcium flux at 1 uM by cell based FLIPR assay
Sequence (Q13936 whole entry): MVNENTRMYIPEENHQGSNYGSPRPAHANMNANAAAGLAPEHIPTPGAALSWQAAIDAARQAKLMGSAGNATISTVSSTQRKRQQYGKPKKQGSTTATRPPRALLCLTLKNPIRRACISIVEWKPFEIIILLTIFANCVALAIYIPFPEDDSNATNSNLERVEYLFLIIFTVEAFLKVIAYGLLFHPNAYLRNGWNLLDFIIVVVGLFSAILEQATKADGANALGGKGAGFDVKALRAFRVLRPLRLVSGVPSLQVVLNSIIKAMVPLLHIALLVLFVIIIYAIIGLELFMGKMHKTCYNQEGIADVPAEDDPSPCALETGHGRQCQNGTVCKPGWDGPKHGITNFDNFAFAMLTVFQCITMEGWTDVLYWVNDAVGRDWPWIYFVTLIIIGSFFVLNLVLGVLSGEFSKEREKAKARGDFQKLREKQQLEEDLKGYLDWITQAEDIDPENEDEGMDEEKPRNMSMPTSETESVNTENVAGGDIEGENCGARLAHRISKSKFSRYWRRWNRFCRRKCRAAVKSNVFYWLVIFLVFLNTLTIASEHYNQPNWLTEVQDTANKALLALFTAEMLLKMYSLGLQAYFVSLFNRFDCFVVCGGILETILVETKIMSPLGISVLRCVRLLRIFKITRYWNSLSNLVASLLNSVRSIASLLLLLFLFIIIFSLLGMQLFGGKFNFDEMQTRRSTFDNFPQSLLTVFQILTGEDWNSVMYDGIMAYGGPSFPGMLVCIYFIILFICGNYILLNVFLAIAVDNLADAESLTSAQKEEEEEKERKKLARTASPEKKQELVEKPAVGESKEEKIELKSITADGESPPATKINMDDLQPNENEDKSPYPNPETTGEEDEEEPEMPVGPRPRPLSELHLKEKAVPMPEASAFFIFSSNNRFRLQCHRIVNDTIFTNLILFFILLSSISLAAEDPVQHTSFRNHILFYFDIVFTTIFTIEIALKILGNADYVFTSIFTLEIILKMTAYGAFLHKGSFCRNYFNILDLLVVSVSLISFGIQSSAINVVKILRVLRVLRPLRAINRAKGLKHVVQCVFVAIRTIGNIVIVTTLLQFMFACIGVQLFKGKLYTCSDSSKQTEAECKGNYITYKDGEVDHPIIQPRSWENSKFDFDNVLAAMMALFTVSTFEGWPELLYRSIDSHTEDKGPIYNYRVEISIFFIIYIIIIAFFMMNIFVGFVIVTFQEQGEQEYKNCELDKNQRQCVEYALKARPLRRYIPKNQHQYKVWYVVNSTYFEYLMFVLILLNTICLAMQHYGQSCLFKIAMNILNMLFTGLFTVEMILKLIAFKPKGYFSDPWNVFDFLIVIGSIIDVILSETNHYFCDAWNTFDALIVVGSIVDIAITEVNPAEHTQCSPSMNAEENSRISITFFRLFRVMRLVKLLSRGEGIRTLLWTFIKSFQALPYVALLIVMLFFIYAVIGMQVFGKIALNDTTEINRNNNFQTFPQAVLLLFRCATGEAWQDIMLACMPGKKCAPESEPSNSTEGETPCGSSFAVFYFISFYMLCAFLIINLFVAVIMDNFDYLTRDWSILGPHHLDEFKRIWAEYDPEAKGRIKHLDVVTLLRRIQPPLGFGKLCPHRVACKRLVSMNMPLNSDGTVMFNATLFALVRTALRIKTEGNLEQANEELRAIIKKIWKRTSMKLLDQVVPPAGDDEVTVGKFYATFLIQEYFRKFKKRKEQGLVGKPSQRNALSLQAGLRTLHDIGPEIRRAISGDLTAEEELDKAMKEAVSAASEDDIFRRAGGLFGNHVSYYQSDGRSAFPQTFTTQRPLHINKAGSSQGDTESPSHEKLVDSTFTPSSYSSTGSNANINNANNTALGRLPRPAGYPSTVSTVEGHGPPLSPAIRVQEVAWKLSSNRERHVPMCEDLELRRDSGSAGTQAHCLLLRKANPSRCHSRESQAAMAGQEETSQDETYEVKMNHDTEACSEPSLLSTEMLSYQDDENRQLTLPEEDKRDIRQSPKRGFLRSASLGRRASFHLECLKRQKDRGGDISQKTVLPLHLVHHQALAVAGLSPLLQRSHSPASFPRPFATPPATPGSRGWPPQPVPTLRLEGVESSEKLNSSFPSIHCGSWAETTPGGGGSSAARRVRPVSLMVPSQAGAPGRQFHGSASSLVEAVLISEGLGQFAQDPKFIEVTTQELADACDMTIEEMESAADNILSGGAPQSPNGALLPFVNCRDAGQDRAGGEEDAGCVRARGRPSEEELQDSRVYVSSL
Provide the measurement as a number trailed by its unit.

Query string: Tell me the measured inhibition at 1 µM of NC(=O)c1ccccc1C(=O)N1CCC(N(C2CC2)S(=O)(=O)c2cccc(C(F)(F)F)c2)CC1 , please.
Result string: 11%
